experiment: Pharmacokinetic Study in Dogs; format: in vivo; conditions: male, Beagle; dog, oral gavage 10 mg/kg, 20% HPβCD aq., plasma
readoutType: Cmax (ng/mL)
# unit: ng/mL | format: bare number

Requested read-out: Cmax. Entry: "O=C1NCc2nc(-c3c(F)cccc3F)cc(Nc3ccc(C(=O)N4CCOCC4)cc3)c21" 1070

Please give the measured Cmax for this compound: "O=C1NCc2nc(-c3c(F)cccc3F)cc(Nc3ccc(C(=O)N4CCCC4)cc3)c21" 2100

* * *

For each record, write down the corresponding solubility kinetic at 2 h.
experiment: Kinetic Solubility Determination Assay; format: physicochemical; conditions: aqueous buffer, kinetic from dmso stock, PBS pH 7.4, RT, read-out: Kin. Sol. pH 7.4

// query solubility kinetic at 2 h value for entry "N#Cc1cccc(F)c1-c1cc(Nc2ccc(C(=O)N3CCCC3)cc2)c2c(n1)CNC2=O" 32.9 µM

Need solubility kinetic at 2 h, item "O=C1NCc2nc(-c3c(F)cccc3F)cc(Nc3ccc(C(=O)N4CCC4)cc3)c21" 3.75 µM

Query (compound): "N#Cc1cccc(F)c1-c1cc(Nc2ccc(C(=O)N3CCOCC3)cc2)c2c(n1)CNC2=O" ; field requested: solubility kinetic at 2 h 271 µM

Which measured solubility kinetic at 2 h value corresponds to "O=C1NCc2nc(-c3c(F)cccc3F)cc(Nc3ccc(N4CCOCC4)cn3)c21" ? 11.9 µM

Data request, read-out solubility kinetic at 2 h, for "O=C1NCc2nc(-c3c(F)cccc3F)cc(Nc3ccc(C(=O)N4CCCCC4)cc3)c21" 1.45 µM

Which solubility kinetic at 2 h is listed for "O=C1NCc2nc(-c3c(F)cccc3F)cc(Nc3ccc(C(=O)N4CCOCC4)cc3)c21" ? 172 µM

Data request, read-out solubility kinetic at 2 h, for "O=C1NCc2nc(-c3c(F)cccc3F)cc(Nc3ccc(C(=O)N4CCCC4)cc3)c21" 274 µM

Suppose we examine the compound "O=C1NCc2nc(-c3c(F)cccc3F)cc(Nc3ccc(C(=O)N4CCOCC4)nc3)c21" ; what solubility kinetic at 2 h value has been reported? 252 µM

May I ask what solubility kinetic at 2 h has been recorded for "O=C1NCc2nc(-c3c(F)cccc3F)cc(Nc3ccc(C(=O)N4C[C@H]5COC[C@H]5C4)cc3)c21" ? 205 µM

Entry "CC1(O)CCN(C(=O)c2ccc(Nc3cc(-c4c(F)cccc4F)nc4c3C(=O)NC4)cc2)CC1" : reported solubility kinetic at 2 h = ? 237 µM

Quick one: solubility kinetic at 2 h for "CCN(CC)C(=O)c1ccc(Nc2cc(-c3c(F)cccc3F)nc3c2C(=O)NC3)cc1" ? 1.86 µM

Bench note: what solubility kinetic at 2 h did "O=C1NCc2nc(-c3c(F)cccc3F)cc(Nc3ccc(N4CCCC4)cn3)c21" show? < 0.5 µM
